Experiment: Testosterone solubility by the increment method
Format: physicochemical
Details: organic solvent or mixture, thermodynamic from solid; solvent Transcutol (100%), 37° C.
measure-name: solubility

## Input Need solubility, item C[C@]12CC[C@H]3[C@@H](CCC4=CC(=O)CC[C@@]43C)[C@@H]1CC[C@@H]2O
## Output 140 mg/mL

====

Assay: Testosterone solubility by the increment method
Type: physicochemical
Details: aqueous with cosolvent or surfactant or cyclodextrin, thermodynamic from solid; water/ethanol mixture, 95% ethanol (v/v) 84/16, 37° C.
measure-name: solubility (mg/mL)
Your answer is read as mg/mL, so omit the unit and give the number.

## Input Record request: solubility value, item C[C@]12CC[C@H]3[C@@H](CCC4=CC(=O)CC[C@@]43C)[C@@H]1CC[C@@H]2O [Testosterone]
## Output 120

====

Assay: Testosterone solubility by the increment method
Type: physicochemical
Settings: aqueous with cosolvent or surfactant or cyclodextrin, thermodynamic from solid; water/ethanol mixture, 95% ethanol (v/v) 63/37, 37° C.
measure-name: solubility

## Input Can you look up the measured solubility of C[C@]12CC[C@H]3[C@@H](CCC4=CC(=O)CC[C@@]43C)[C@@H]1CC[C@@H]2O for me?
## Output 30 mg/mL

====

Assay: Testosterone solubility by the increment method
Format: physicochemical
Details: organic solvent or mixture, thermodynamic from solid; water/ethanol mixture, 95% ethanol (v/v) 100/0, 37° C.
Method: A known amount of solvent (2 mL) is stirred at 37° C. in a closed Erlenmeyer.
measure-name: solubility

## Input Would you mind telling me what solubility value was observed for C[C@]12CC[C@H]3[C@@H](CCC4=CC(=O)CC[C@@]43C)[C@@H]1CC[C@@H]2O ?
## Output 340 mg/mL

====

Assay: Testosterone solubility by the increment method
Assay type: physicochemical
Settings: aqueous with cosolvent or surfactant or cyclodextrin, thermodynamic from solid; water/ethanol mixture, 95% ethanol (v/v) 74/26, 37° C.
Description: A known amount of solvent (2 mL) is stirred at 37° C. in a closed Erlenmeyer.
measure-name: solubility (mg/mL)
Quick note: give the figure in mg/mL, leave out the unit.

## Input What solubility value was documented for this molecule, C[C@]12CC[C@H]3[C@@H](CCC4=CC(=O)CC[C@@]43C)[C@@H]1CC[C@@H]2O ?
## Output 52

====

Experiment: Testosterone solubility by the increment method
Format: physicochemical
Conditions: propylene glycol dipelargonate (PGDP) 100%, oil or lipid, thermodynamic from solid; solvent PGDP (100%), 37° C.
measure-name: solubility (mg/mL)
Numbers only; they are read as mg/mL.

## Input Sample C[C@]12CC[C@H]3[C@@H](CCC4=CC(=O)CC[C@@]43C)[C@@H]1CC[C@@H]2O — what was its solubility?
## Output 18

====

Assay: Testosterone solubility by the increment method
Type: physicochemical
Details: propylene glycol (PG) 100%, organic solvent or mixture, thermodynamic from solid; solvent PG (100%), 37° C.
measure-name: solubility (mg/mL)
Numeric answer only, unit mg/mL assumed.

## Input Consider the compound shown here: C[C@]12CC[C@H]3[C@@H](CCC4=CC(=O)CC[C@@]43C)[C@@H]1CC[C@@H]2O What is its recorded solubility?
## Output 86

====

Experiment: Testosterone solubility by the increment method
Format: physicochemical
Conditions: oleic acid (OA) 100%, oil or lipid, thermodynamic from solid; solvent OA (100%), 37° C.
measure-name: solubility
Note: state the figure and append the unit.

## Input Would you kindly share the measured solubility for C[C@]12CC[C@H]3[C@@H](CCC4=CC(=O)CC[C@@]43C)[C@@H]1CC[C@@H]2O [Testosterone] ?
## Output 66 mg/mL

Cited source: patent US20080038220A1
